- Tested on: rabbit vWF A1 domain (SEQ ID NO 6)
- Sequence (as listed by the source): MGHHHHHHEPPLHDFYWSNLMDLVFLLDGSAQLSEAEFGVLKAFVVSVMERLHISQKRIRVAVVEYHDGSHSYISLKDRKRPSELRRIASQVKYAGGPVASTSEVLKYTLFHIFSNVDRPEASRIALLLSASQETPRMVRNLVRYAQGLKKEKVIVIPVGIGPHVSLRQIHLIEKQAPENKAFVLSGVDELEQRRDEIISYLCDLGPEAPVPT
- Experiment: 3-point dot blot screen, rabbit vWF A1 domain
- Assay type: binding
- Settings: DNA SELEX 1 aptamers; 100 nM rabbit vWF A1 domain; ratio of fraction bound with target to without
Reported metric: Screen- Rabbit/No Protein
Form field (numeric): enter value without unit.

Molecule | Measurement
AMX199.F1: DNA SELEX 1 aptamer clone (nucleic acid, DNA, backbone not given here, DNA SELEX 1 aptamer clone) DNA: CTACCTACGATCTGACTAGCGAAACACTAGGTTGGTTAGGATTGGTGTGTTCCCGCTATGCTTACTCTCATGTAGTTCC | 1.36
AMX200.F9: DNA SELEX 1 aptamer clone (nucleic acid, DNA, backbone not given here, DNA SELEX 1 aptamer clone) DNA: CTACCTACGATCTGACTAGCGGAATGAGGATGCTGATGGATTGGTCAGGTCTGCTGGCTGCTTACTCTCATGTAGTTCC | 0.99
AMX199.G1: DNA SELEX 1 aptamer clone (nucleic acid, DNA, backbone not given here, DNA SELEX 1 aptamer clone) DNA: CTACCTACGATCTGACTAGCGAAACACTAGGTTGGTTAGGATTGGTGTGTTCCCGCTTTGCTTACTCTCATGTAGTTCC | 1.26
AMX199.F8: DNA SELEX 1 aptamer clone (nucleic acid, DNA, backbone not given here, DNA SELEX 1 aptamer clone) DNA: CTACCTACGATCTGACTAGCAAGGGGATTGGCTCCGGGTCTGGCGTGCTTGGCACCTCTGGCTTACTCTCATGTAGTTCC | 1.79
AMX199.F7: DNA SELEX 1 aptamer clone (nucleic acid, DNA, backbone not given here, DNA SELEX 1 aptamer clone) DNA: CTACCTACGATCTGACTAGCGGAATGAGAGTGCTGGTGGATTGCTCAGGTCTGCTGGCTGCTTACTCTCATGTAGTTCC | 5.00
AMX199.H7: DNA SELEX 1 aptamer clone (nucleic acid, DNA, backbone not given here, DNA SELEX 1 aptamer clone) DNA: CTACCTACGATCTGACTAGCGAAACACTAGGTTGGTTAGGATTGGTGTGTTTCCGCTTTGCTTACTCTCATGTAGTTCC | 1.14
AMX200.F11: DNA SELEX 1 aptamer clone (nucleic acid, DNA, backbone not given here, DNA SELEX 1 aptamer clone) DNA: CTACCTACGATCTGACTAGCGGAATGAGGATGCTGGTGGATTGCTCAGGTCTGCTGGCTGCTTACTCTCATGTAGTTCC | 3.25

Query molecule follows.
Return Screen- Rabbit/No Protein for the following molecule: AMX199.F11: DNA SELEX 1 aptamer clone (nucleic acid, DNA, backbone not given here, DNA SELEX 1 aptamer clone) DNA: CTACCTACGATCTGACTAGCGAAACACTAGGTTGGTTAGGATTGGTGTGTTTCTGCTCTGCTTACTCTCATGTAGTTCC
1.35
